study_system: FXR (Homo sapiens (Human), UniProt Q96RI1)
Sequence (Q96RI1 262-486): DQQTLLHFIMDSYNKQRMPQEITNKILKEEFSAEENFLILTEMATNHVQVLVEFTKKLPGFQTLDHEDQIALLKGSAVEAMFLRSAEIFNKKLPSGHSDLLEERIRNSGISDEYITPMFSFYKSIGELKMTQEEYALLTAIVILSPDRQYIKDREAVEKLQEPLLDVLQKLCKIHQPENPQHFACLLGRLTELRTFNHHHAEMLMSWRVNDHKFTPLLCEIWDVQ
protocol_summary: FXR EC50 (FXR agonist potency reported with each Example)
Type: cell-based
Each record here notes measured pEC50.
// scale note: pEC50 = -log10(conc_M); give the bare number

Asked: Entry `O=C(N(CC12CCC(c3nc(C4CC4)no3)(CC1)CC2)c1cccc(-c2cnn(C(F)F)c2)c1)C12CC(F)(C1)C2` needs its pEC50 filled in; supply it.
Given back: 7.37

Asked: Entry `CS(=O)(=O)n1cc(-c2cccc(N(CC34CCC(c5nc(C6CC6)no5)(CC3)CC4)C(=O)C34CC(F)(C3)C4)c2)cn1` needs its pEC50 filled in; supply it.
Given back: 7.14

Asked: Entry `O=C(C1CC(F)(F)C1)N(CC12CCC(c3nc(C4CC4)no3)(CC1)CC2)c1cccc(-c2nc(C(F)F)co2)c1` needs its pEC50 filled in; supply it.
Given back: 6.33

Asked: Entry `O=C(N(CC12CCC(c3nc(C4CC4)no3)(CC1)CC2)c1cccc(-c2nc(C(F)F)co2)c1)C12CC(F)(C1)C2` needs its pEC50 filled in; supply it.
Given back: 6.61

Asked: Entry `CC(C)(C)c1nc(C23CCC(CN(C(=O)C45CC(F)(C4)C5)c4cc(-c5nc(C6CC6)no5)ccn4)(CC2)CC3)no1` needs its pEC50 filled in; supply it.
Given back: 7.32

Asked: Entry `Cn1nc(-c2cccc(N(CC34CCC(c5nc(C6CC6)no5)(CC3)CC4)C(=O)C3CC(F)(F)C3)c2)cc1C1CC1` needs its pEC50 filled in; supply it.
Given back: 6.21
